Origin of values: paper PMC9616048

- Tested on: mitochondria of HepG2 human hepatoma cells
- experiment_summary: Mitochondrial toxicity in HepG2 cells (galactose medium)
- Type: cell-based
- settings: HepG2, 48 h
# Mitotoxicity (48 h) MC50 listing for each entry below

// worked examples, Mitotoxicity (48 h) MC50 included
molecule=c1ccc(-c2nc(-c3cccs3)no2)cc1 test_value="> 50.0 µM"
molecule="c1ccc(-c2noc(-c3cccs3)n2)cc1 [Tioxazafen, reference compound]" test_value="> 50.0 µM"
molecule=CCCc1ccc(-c2nc(-c3ccc(OC)cc3)no2)cc1 test_value="48.2 µM"
molecule=FC(F)Oc1ccc(-c2nc(-c3cccs3)no2)cc1 test_value="> 50.0 µM"
molecule=CCCc1ccc(-c2nc(-c3ccccc3)no2)cc1 test_value="> 50.0 µM"
molecule=CCOc1ccc(-c2nc(-c3cccs3)no2)cc1 test_value="> 50.0 µM"

Ask: Any idea what its Mitotoxicity (48 h) MC50 is? The molecule is CCCc1ccc(-c2nc(-c3ccc(C(F)(F)F)cc3)no2)cc1
Result: > 50.0 µM

Ask: Same lookup for CCCc1ccc(-c2nc(-c3ccc(C)cc3)no2)cc1 , please.
Result: > 50.0 µM

Ask: And then FC(F)Oc1ccc(-c2nc(-c3ccc(C(F)(F)F)cc3)no2)cc1 , what is it?
Result: 36.3 µM

Ask: And for FC(F)(F)Oc1ccc(-c2nc(-c3cccs3)no2)cc1 ?
Result: > 50.0 µM
